The measured values listed here are drawn from PubChem BioAssay (NCATS).

ASSAY_PROCEDURE: Cytotoxicity counterscreen for inhibitors of SARS-CoV-2 cell entry (AID 1645845); further: nearly all actives have a fitted effect of over 50% in size
CONDITION_LABEL: cell viability (SARS-CoV-2 entry assay cells); series mostly up to 57.1 µM
Results filed as inconclusive are left out. The source made the active and inactive calls. The call rests on the fitted dose curve.
Would you mind answering with one of these outcomes? y = active, n = inactive

C[C@]12CC[C@H](O)CC1=CC[C@@H]1[C@@H]2CC[C@]2(C)C(c3cccnc3)=CC[C@@H]12	n
CC(C)CCCC(C)NC(C)C (centres undefined)	n

In: Answer briefly: the call reported for Cc1cc(-c2cc(OC(=O)c3ccccc3)ccc2Cl)cc2nnc(Nc3ccc(OCCN4CCCC4)cc3)nc12 in this assay.
Out: n

In: Please state the recorded outcome for this compound: CC(C)(O)CNc1ncc(-c2ccnc(Nc3ccncc3)n2)c(CC2CC2)n1
Out: y

In: Please state the recorded outcome for this compound: O=C(CCNC(=O)c1ccc(OC(F)(F)F)cc1)N[C@@H]1CCCc2ccccc21
Out: n

In: Per the records of this test, what outcome belongs to CC[C@H](Nc1ncnc2nc[nH]c12)c1oc2ccccc2c(=O)c1-c1cccc(F)c1 ?
Out: n

In: # fetch the recorded call for O=C(NCc1ccccc1)[C@H](Cc1ccccc1)NC(=O)[C@H]1O[C@@H]1C(=O)NCCc1ccc(O)cc1 here
Out: n

In: Give the logged outcome of this assay for the following compound: NC(=O)CCC1NC(=O)C(Cc2ccccc2)NC(=O)C(Cc2ccc(O)cc2)NC(=O)CCSSCC(C(=O)N2CCCC2C(=O)NC(CCCN=C(N)N)C(=O)NCC(N)=O)NC(=O)C(CC(N)=O)NC1=O (centres undefined)
Out: n

In: Hi team, can someone confirm the assay call for FC(F)(F)c1ccc(CNc2ccc(Cc3c[nH]c4ncc(Cl)cc34)cn2)cn1 ?
Out: n

----------
TESTED_ON: Cytochrome P450 2D6 (Homo sapiens) (UniProt P10635)
Sequence (P10635 whole entry, looked up): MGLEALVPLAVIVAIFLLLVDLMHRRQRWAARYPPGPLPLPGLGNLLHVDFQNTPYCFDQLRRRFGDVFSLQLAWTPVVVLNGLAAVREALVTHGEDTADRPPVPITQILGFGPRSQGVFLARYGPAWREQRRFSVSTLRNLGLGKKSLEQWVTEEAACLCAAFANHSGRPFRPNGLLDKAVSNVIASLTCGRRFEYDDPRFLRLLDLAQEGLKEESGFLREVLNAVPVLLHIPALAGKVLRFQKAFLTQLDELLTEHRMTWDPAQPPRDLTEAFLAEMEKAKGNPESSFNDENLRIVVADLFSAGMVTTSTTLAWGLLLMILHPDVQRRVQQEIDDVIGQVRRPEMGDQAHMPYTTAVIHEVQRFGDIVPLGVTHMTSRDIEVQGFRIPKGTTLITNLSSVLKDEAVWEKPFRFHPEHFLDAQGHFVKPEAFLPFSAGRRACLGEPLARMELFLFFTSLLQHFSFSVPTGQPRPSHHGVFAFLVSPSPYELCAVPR
ASSAY_PROCEDURE: Cytochrome P450 family 2 subfamily D member 6 (CYP2D6) small molecule antagonists: luciferase biochemical (cell-free) qHTS assay (AID 1645840); further: nearly all actives have a fitted effect of over 55% in size; further: potency means the concentration at half of the fitted maximal effect
CONDITION_LABEL: P450-Glo CYP2D6 enzyme, luciferin luminescence, 1 h; series mostly up to 57.4 µM
Inconclusive results are not listed. Activity calls are given as the source filed them. The call rests on the fitted dose curve; in most records, active means well fitted inhibition curve with a large enough effect in the repeat runs; inconclusive means weak or mixed curves; inactive means flat fitted curve, though single readings scatter.
READOUT_TYPE: Potency

Worked examples follow.
CC1=NCCc2c1[nH]c1cc(O)ccc21	12 µM (active)
CC(=O)Oc1ccc(Cl)c2cccnc12	inactive
CN(C)[C@@H]1C(=O)C(C(N)=O)C(=O)[C@@]2(O)C(=O)C3C(=O)c4c(O)ccc(Cl)c4[C@@](C)(O)C3C[C@@H]12 (stereo not given in full)	inactive
C[C@@]12CCCCC[C@@H](Cc3ccc(O)cc31)[C@H]2N	16.9 µM (active)
C[C@@H](C1CC[C@@]2(O)C3=CC(=O)[C@@H]4C[C@@H](O)[C@@H](O)C[C@]4(C)[C@H]3CC[C@]12C)[C@H](O)CCC(C)(C)O (stereo not given in full)	inactive
CCN=C1Nc2ccc(Cl)cc2C(C)(c2ccccc2)O1 (stereo not given)	10.7 µM (active)
NCCS[As](SCCN)c1ccc(Nc2nc(N)nc(N)n2)cc1	inactive
N#CC(O[C@@H]1O[C@H](CO[C@@H]2O[C@H](CO)[C@@H](O)[C@H](O)[C@H]2O)[C@@H](O)[C@H](O)[C@H]1O)c1ccccc1 (stereo not given in full)	inactive

Potency reading for CNC(C)[C@@H](O)c1ccc(O)cc1 (stereo not given in full) : inactive

// Potency lookup, compound = CCN1CCN(C(c2ccc(Cl)cc2)c2ccc(Cl)cc2)CC1 , result: 0.952 µM (active)
